Test system: 931267-113-T-J1-PDC KRAS spheroid with HUVEC/MSC, viability;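 further: compound exposure lasted 7 days before the readout; 100% = DMSO vehicle control viability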
MEASUREMENT_PROTOCOL: Anticancer human tumor 931267-113-T-J1-PDC patient-derived colon adenocarcinoma cell line growth inhibition [KRAS2]
APPLIED_CONDITIONS: second compound 10 µM; first compound 0.0316 µM; stronger effect = lower value
Each record's class is read off its viability, T/C using these ranges: interval 1 (below 0.3%), interval 2 (0.3% to below 90%), interval 3 (90% or more)

Could you place CC(C)NCC(C(=O)N1CCN(c2ncnc3c2C(C)CC3O)CC1)c1ccc(Cl)cc1 (stereo not drawn) + CNCc1ccccc1-c1csc(C(C)Nc2nc(C)nc3cc(OC)c(OC)cc23)c1 in its proper category? Many thanks.
interval 1

Class for CCNC(=O)CC1N=C(c2ccc(Cl)cc2)c2cc(OC)ccc2-n2c(C)nnc21 (stereo not drawn) + C=CC(=O)N1CCN(c2nc(=O)n(-c3c(C)ccnc3C(C)C)c3nc(-c4c(O)cccc4F)c(F)cc23)C(C)C1 ?
interval 3

Could you place COc1cc2nccc(Oc3ccc(NC(=O)C4(C(=O)Nc5ccc(F)cc5)CC4)cc3)c2cc1OC + C=CC(=O)N1CCN(c2nc(=O)n(-c3c(C)ccnc3C(C)C)c3nc(-c4c(O)cccc4F)c(F)cc23)C(C)C1 in its proper category? Many thanks.
interval 2

Each molecule maps to one class by viability, T/C. Which class for Cn1nccc1Nc1nccc(-c2cc3c(s2)C(C)(C)N(CCN2CCOCC2)C3=O)n1 + CNCc1ccccc1-c1csc(C(C)Nc2nc(C)nc3cc(OC)c(OC)cc23)c1 ?
interval 1

Determine which band this molecule sits in: CC(=O)OC12COC1CC(O)C1(C)C(=O)C(O)C3=C(C)C(OC(=O)C(O)C(NC(=O)OC(C)(C)C)c4ccccc4)CC(O)(C(OC(=O)c4ccccc4)C21)C3(C)C (stereo not drawn) + CNCc1ccccc1-c1csc(C(C)Nc2nc(C)nc3cc(OC)c(OC)cc23)c1
interval 2

Which category does the recorded viability, T/C put COC(=O)c1ccc2c(C(=Nc3ccc(N(C)C(=O)CN4CCN(C)CC4)cc3)c3ccccc3)c(O)[nH]c2c1 + CNCc1ccccc1-c1csc(C(C)Nc2nc(C)nc3cc(OC)c(OC)cc23)c1 in?
interval 1

Bin this entry: CC1COCCN1c1cc(-c2ccnn2C)c2ccnc(-c3ccn[nH]3)c2n1 (stereo not drawn) + CNCc1ccccc1-c1csc(C(C)Nc2nc(C)nc3cc(OC)c(OC)cc23)c1
interval 1

Lab log: COC(=O)c1ccc2c(C(=Nc3ccc(N(C)C(=O)CN4CCN(C)CC4)cc3)c3ccccc3)c(O)[nH]c2c1 + COc1cc2nc(C)nc(NC(C)c3cc(N)cc(C(F)(F)F)c3)c2cc1OC1CCOC1 — assign viability, T/C category
interval 2

// bin(item) where item = COc1cc2nccc(Oc3ccc(NC(=O)C4(C(=O)Nc5ccc(F)cc5)CC4)cc3)c2cc1OC + COc1cc2nc(C)nc(NC(C)c3cc(N)cc(C(F)(F)F)c3)c2cc1OC1CCOC1
interval 2

Assign a category based on measured viability, T/C for CCN1CCN(Cc2ccc(Nc3ncc(F)c(-c4cc(F)c5nc(C)n(C(C)C)c5c4)n3)nc2)CC1 + CNCc1ccccc1-c1csc(C(C)Nc2nc(C)nc3cc(OC)c(OC)cc23)c1 and give only the class name.
interval 1

For this molecule, which bin applies? COc1cc(Nc2ncc3c(n2)-c2ccc(Cl)cc2C(c2c(F)cccc2OC)=NC3)ccc1C(=O)O + CC1OCC2(CCN(c3cnc(Sc4ccnc(N)c4Cl)c(N)n3)CC2)C1N
interval 2

Consider CC(C)NCC(C(=O)N1CCN(c2ncnc3c2C(C)CC3O)CC1)c1ccc(Cl)cc1 (stereo not drawn) + CC1OCC2(CCN(c3cnc(Sc4ccnc(N)c4Cl)c(N)n3)CC2)C1N . To which viability, T/C class does it belong?
interval 2

Given CC1(C)CCC(CN2CCN(c3ccc(C(=O)NS(=O)(=O)c4ccc(NCC5CCOCC5)c([N+](=O)[O-])c4)c(Oc4cnc5[nH]ccc5c4)c3)CC2)=C(c2ccc(Cl)cc2)C1 + C=CC(=O)N1CCN(c2nc(=O)n(-c3c(C)ccnc3C(C)C)c3nc(-c4c(O)cccc4F)c(F)cc23)C(C)C1 , name the class its viability, T/C places it in.
interval 3

Please let me know in which category the item Cn1nccc1Nc1nccc(-c2cc3c(s2)C(C)(C)N(CCN2CCOCC2)C3=O)n1 + CC1OCC2(CCN(c3cnc(Sc4ccnc(N)c4Cl)c(N)n3)CC2)C1N belongs.
interval 2

Entry CC(=O)OC12COC1CC(O)C1(C)C(=O)C(O)C3=C(C)C(OC(=O)C(O)C(NC(=O)OC(C)(C)C)c4ccccc4)CC(O)(C(OC(=O)c4ccccc4)C21)C3(C)C (stereo not drawn) + COc1cc2nc(C)nc(NC(C)c3cc(N)cc(C(F)(F)F)c3)c2cc1OC1CCOC1 belongs to which category?
interval 3
